pIC50: −log10 of the molar value.
Below are compounds with their pIC50 as measured on PDE1C (Homo sapiens, UniProt Q14123).
Sequence (Q14123 whole entry): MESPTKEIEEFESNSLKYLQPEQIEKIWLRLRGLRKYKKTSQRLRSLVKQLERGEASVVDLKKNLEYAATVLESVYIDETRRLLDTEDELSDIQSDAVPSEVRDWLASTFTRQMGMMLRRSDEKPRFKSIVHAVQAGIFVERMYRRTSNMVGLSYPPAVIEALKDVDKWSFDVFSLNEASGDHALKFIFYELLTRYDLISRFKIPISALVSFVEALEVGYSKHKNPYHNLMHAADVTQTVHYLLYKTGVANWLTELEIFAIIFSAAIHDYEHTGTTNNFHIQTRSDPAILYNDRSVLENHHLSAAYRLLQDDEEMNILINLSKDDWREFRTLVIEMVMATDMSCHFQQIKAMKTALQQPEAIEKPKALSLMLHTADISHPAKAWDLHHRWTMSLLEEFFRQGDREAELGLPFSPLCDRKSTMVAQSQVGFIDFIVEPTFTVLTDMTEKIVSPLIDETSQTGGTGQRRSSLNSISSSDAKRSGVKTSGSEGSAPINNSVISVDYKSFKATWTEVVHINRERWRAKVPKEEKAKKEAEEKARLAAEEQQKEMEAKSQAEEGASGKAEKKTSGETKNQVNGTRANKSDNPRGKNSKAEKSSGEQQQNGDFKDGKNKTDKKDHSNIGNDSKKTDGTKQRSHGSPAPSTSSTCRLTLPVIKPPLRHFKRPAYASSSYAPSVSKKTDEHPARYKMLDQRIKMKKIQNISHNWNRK
property: pIC50

compound	meas_value
CCOc1ncccc1-c1cc(NCc2cn[nH]c2)c2c(C(C)C)nn(C)c2n1	7.12
CCOc1ncccc1-c1cc(NCc2cnn(C)c2)c2c(C(C)C)nn(C)c2n1	7.25
CCOc1ncccc1-c1cc(NCc2nnn(C)n2)c2c(C(C)C)nc(C)n2n1	8.33
CCOc1ncccc1-c1cc(NCc2ccccn2)c2c(C(C)C)nn(C)c2n1	7.09
CCOc1ncccc1-c1cc(NCc2cnn(C)n2)c2c(C(C)C)nn(C)c2n1	7.12
Cc1coc(-c2cc(NCc3ncn(C)n3)c3c(C(C)C)nn(C)c3n2)n1	7.17
Cc1sccc1-c1cc(NCc2ncn(C)n2)c2c(C(C)C)nn(C)c2n1	7.51
CCOc1ncccc1-c1cc(NCc2ncn(C)n2)c2c(C(C)CC)nc(C)n2n1 (single isomer, unassigned; (+)) [Example 50]	8.62
CCOc1ncccc1-c1cc(NCc2ncn(C)n2)c2c(C(C)CC)nc(C)n2n1 (single isomer, unassigned; (-)) [Example 49]	8.12
CCOc1ncccc1-c1cc(NCc2nnc(C)o2)c2c(C(C)C)nc(C)n2n1	7.43
CCOc1ncccc1-c1cc(NCc2cc[nH]n2)c2c(C(C)C)nc(C)n2n1	7.89
CCOc1ncccc1-c1cc(NCc2cnc(C)s2)c2c(C(C)C)nc(C)n2n1	8.24
CCOc1ncccc1-c1cc(NCc2ncon2)c2c(C(C)C)nc(C)n2n1	7.47
CCOc1ncccc1-c1cc(NCc2nccc(C)n2)c2c(C(C)C)nn(C)c2n1	6.74
CC(C)c1nn(C)c2nc(-c3cccn(C)c3=O)cc(NCc3ncn(C)n3)c12	6.32
CCOc1ncccc1-c1cc(NCc2nnn(C)n2)c2c(C(C)C)nn(C)c2n1	7.52
CCOc1ncccc1-c1cc(NCc2cccc(OC)n2)c2c(C(C)C)nn(C)c2n1	6.25
